- assayed-system: human mAChR M4 (Homo sapiens, UniProt P08173)
- Construct: expressed in transfected cells
- Sequence (P08173 whole entry): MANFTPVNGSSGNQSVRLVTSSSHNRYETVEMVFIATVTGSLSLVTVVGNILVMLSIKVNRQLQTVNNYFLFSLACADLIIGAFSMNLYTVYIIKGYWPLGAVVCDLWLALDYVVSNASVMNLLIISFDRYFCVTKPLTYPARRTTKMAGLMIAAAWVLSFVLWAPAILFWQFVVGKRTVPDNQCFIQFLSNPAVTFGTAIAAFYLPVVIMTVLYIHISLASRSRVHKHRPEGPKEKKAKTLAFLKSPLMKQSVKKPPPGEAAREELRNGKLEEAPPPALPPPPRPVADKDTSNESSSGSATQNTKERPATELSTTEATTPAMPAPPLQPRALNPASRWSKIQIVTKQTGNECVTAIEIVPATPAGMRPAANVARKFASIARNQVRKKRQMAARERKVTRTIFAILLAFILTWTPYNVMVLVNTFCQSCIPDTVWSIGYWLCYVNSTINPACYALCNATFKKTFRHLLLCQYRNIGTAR
- measurement-notes: mAChR M4 cell-based functional assay (calcium mobilization, CHO-K1 hM4-Gqi5 cells)
- particulars: CHO-K1, % ACh maximum at 30 μM; human M4
1 means recorded Emax at 30 µM is 80% or above; 0 means it is below 80%.

Examples with answers:
>  <structure-smiles-string>
Cc1cc(C#N)cnc1N1CCc2ncc(Oc3ccccc3F)cc2C1

>  <category-label>
1

$$$$
>  <structure-smiles-string>
Cc1c(C#N)nnc(N2CCc3ncc(C4CC4)cc3C2)c1C

>  <category-label>
1

$$$$
>  <structure-smiles-string>
Cc1nc(Cl)c(C)c(N2Cc3cc(N4CCCn5nccc54)cnc3C(C)(C)C2)n1

>  <category-label>
0

$$$$
>  <structure-smiles-string>
Cc1cc(C(=O)N2CCOCC2)nnc1N1CCc2ncc(N3CCCn4nccc43)cc2C1

>  <category-label>
1

$$$$

Assess whether reported Emax at 30 µM for Cc1cc(C#N)cnc1N1CCc2ncc(-c3ccns3)cc2C1 sits at 80% or higher.
1
